Just for reference, PubChem BioAssay (NCI) is where these values come from.

# Tested on: UACC-257 melanoma
# measurement-description: NCI tumour cell line growth inhibition, 48 h
readout-label: GI50

These solved cases illustrate the format of a correct answer.
>>> print(df.to_string())
                                   compound  value_reported
0  O=C1/C(=C/c2ccc([N+](=O)[O-])s2)Oc2ccc(Cl)cc21         0.63 µM
1  COc1ccc(N2CCN(CC(=O)N3CCN(c4nnc(-c5ccc(Cl)cc5)c(-c5ccc(Cl)cc5)n4)CC3)CC2)cc1         18.9 µM
2  CN(C)CCCn1c2c(c3ccc([N+](=O)[O-])cc3c1=O)C(=O)c1ccccc1-2         38.1 µM
3   C#Cc1cccc(NC(=O)Nc2cccc(NC(=O)CCl)c2)c1       > 82.5 µM

Let us move to another entry and its GI50.
# input Provide one value: measured GI50 of CCOC(=O)c1ccccc1NC(c1ccccc1)c1ccc2cccnc2c1O (stereo not given)
# output 2.98 µM
